- PROTOCOL_DETAILS: Metabolic stability in human liver microsomes assessed as intrinsic clearance half life
- Assay type: ADME, Microsome
QUANTITY: half-life (min)

Would you please look over these solved cases?
COMPOUND: CC(C)C(c1ccc(-c2ccc3cccc(F)c3c2)[nH]c1=O)C1NC(=O)NC1=O (stereo not drawn)
UNIT_OF_MEASURE: min
half-life: 34.7
--
COMPOUND: CCC(/C=C1\OC(=O)NC1=O)(CC)c1ccc(-c2ccc3cccc(F)c3c2)[nH]c1=O
UNIT_OF_MEASURE: min
half-life: 56.9
--
COMPOUND: CC(C)[C@H](C[C@H]1SC(=O)NC1=O)c1ccc(-c2ccc3cccc(F)c3c2)[nH]c1=O (relative stereo)
UNIT_OF_MEASURE: min
half-life: 40.2

[P] O=C1NC(=O)/C(=C/C(c2ccc(-c3ccc4cccc(F)c4c3)[nH]c2=O)C2CCCCC2)O1 (stereo not drawn)
[Q] CCC(/C=C1\OC(=O)NC1=O)(CC)c1ccc(-c2ccc3cccc(C(C)C)c3c2)[nH]c1=O
[R] CCc1cccc2ccc(-c3ccc(C(/C=C4\OC(=O)NC4=O)(CC)CC)c(=O)[nH]3)cc12
// ranking: key=half-life, reverse=True In your reply, arrange the labels in the requested order.
P, Q, R
(P: 65.6 min, Q: 45.5 min, R: 10.7 min)

[A] CCN1CCOc2ccc(-c3ccc(C(/C=C4\OC(=O)NC4=O)(CC)CC)c(=O)[nH]3)cc21
[B] CC(C)C(CC1C(=O)NC(=O)N1C)c1ccc(-c2ccc3cccc(F)c3c2)[nH]c1=O (stereo not drawn)
Of A and B , whose reported half-life is numerically smaller? Write the label of whichever entry you select.
B
(B: 9.2 min, A: 58.3 min)

---

- SYSTEM: Prostaglandin E2 receptor EP3 subtype (Homo sapiens)
- Sequence (P43115 whole entry): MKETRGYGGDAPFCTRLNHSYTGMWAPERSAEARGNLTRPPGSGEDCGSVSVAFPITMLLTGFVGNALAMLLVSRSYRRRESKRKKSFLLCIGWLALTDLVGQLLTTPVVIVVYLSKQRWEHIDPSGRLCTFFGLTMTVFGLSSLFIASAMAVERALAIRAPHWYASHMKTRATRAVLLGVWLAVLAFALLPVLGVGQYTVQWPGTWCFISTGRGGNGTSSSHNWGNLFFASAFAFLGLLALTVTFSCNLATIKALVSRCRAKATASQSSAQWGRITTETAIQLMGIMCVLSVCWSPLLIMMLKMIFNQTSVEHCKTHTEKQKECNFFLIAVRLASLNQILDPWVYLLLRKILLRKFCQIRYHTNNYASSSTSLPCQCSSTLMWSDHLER
pKi: −log10 of the molar value.
QUANTITY: pKi

Would you please look over these solved cases?
COMPOUND: CCn1nc(C)c2ccc(-c3ccc(C(/C=C4\OC(=O)NC4=O)(CC)CC)c(=O)[nH]3)cc21
QUANTITY: pKi
RESULT: 6.57
//
COMPOUND: CC(C)/C(=C1\C(=O)NC(=O)N1C)c1ccc(-c2ccc3cccc(F)c3c2)[nH]c1=O
QUANTITY: pKi
RESULT: 7.07
//
COMPOUND: CC(C)[C@H](C[C@@H]1OC(=O)NC1=O)c1ccc(-c2ccc3cccc(F)c3c2)[nH]c1=O (relative stereo)
QUANTITY: pKi
RESULT: 8.10
//
COMPOUND: CCn1ncc2c(F)c(-c3ccc(C(/C=C4\OC(=O)NC4=O)(CC)CC)c(=O)[nH]3)ccc21
QUANTITY: pKi
RESULT: 5.89
//
COMPOUND: CC(C)[C@@H](c1ccc(-c2ccc3cccc(F)c3c2)[nH]c1=O)[C@@H]1OC(=O)NC1=O (relative stereo)
QUANTITY: pKi
RESULT: 7.07

[P] CC(C)[C@H](C[C@H]1OC(=O)NC1=O)c1ccc(-c2ccc3cccc(F)c3c2)[nH]c1=O (relative stereo)
[Q] CCC(/C=C1\OC(=O)NC1=O)(CC)c1ccc(-c2ccc3c(F)cc(F)cc3c2)[nH]c1=O
[R] CC(C)[C@@H](c1ccc(-c2ccc3cccc(F)c3c2)[nH]c1=O)[C@H]1OC(=O)NC1=O (relative stereo)
// ranking: key=pKi, reverse=True In your reply, arrange the labels in the requested order.
P, R, Q
(P: 8.22, R: 7.57, Q: 6.54)
